SYSTEM TESTED: T1, ZFP SBS#1071 (synthetic, UniProt P08047)
T1 chain: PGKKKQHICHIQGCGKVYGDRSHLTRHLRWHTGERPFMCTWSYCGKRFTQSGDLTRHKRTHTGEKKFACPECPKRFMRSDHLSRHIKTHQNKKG
EXPERIMENT SUMMARY: EMSA
CONDITION SUMMARY: tags: MBP fusion
METRIC NAME: Kd (nM)
All answers are understood in nM, so give the number only.

# input Query: Kd; subject: GGGGCAGGC (dsDNA) DNA 1: GGGGCAGGC DNA 2: GCCTGCCCC
# output 0.2
